Exercise: state measured Minimal Inhibitory Concentration B. megaterium (Bm11) for each of the molecules provided.
# Tested on: Bacillus megaterium Bm11
# Format: cell-based
# test parameters: 100% inhibition of growth after 18–20 h
Numbered stars: 1 amine (or outer) side, 2 acyl side, 3 side chain; on linkers, the order of the positions; unused ones are H or OH. Square brackets hold non-standard residues; d marks the D form. Peptide text beside a SMILES is read from it. Ethylenediamine = C(CN[*:2])N[*:1]
API: value field is a number in µM; no unit string.

Provide the documented Minimal Inhibitory Concentration B. megaterium (Bm11) with Bacillus megaterium Bm11 as the system for CC(C)C[C@H](NC(=O)[C@@H](CC(C)C)NC(=O)[C@H](CCCCN)NC(=O)[C@@H](CC(C)C)NC(=O)[C@H](CC(C)C)NC(=O)[C@@H](CC(C)C)NC(=O)[C@@H](N)CCCCN)C(=O)N[C@@H](CCCCN)C(=O)O [Peptide 29, [D]-L^2,4,6-K3L5] (H-K[dL]L[dL]K[dL]LK-OH)
3

// repeat for CC[C@H](C)[C@H](NC(=O)[C@H](CCCCN)NC(=O)[C@H]1CCCN1C(=O)[C@@H](NC(=O)[C@H](CC(C)C)NC(=O)[C@H](C)NC(=O)[C@H](Cc1ccccc1)NC(=O)[C@H](Cc1ccccc1)NC(=O)CN)[C@@H](C)CC)C(=O)N[C@H](C(=O)N[C@@H](CO)C(=O)NCCN)[C@@H](C)CC [Peptide 7, [D]P^7-[1-11]-TApar] (H-GFFALI[dP]KIIS-Ethylenediamine; N-terminus assumed) and report
30

Another molecule to look at: CC(C)C[C@H](NC(=O)[C@H](CC(C)C)NC(=O)[C@@H](CC(C)C)NC(=O)[C@@H](CC(C)C)NC(=O)[C@H](CC(C)C)NC(=O)[C@@H](N)CCCCN)C(=O)N[C@@H](CCCCN)C(=O)N[C@H](CC(C)C)C(=O)N[C@@H](CC(C)C)C(=O)N[C@H](CC(C)C)C(=O)N[C@@H](CC(C)C)C(=O)N[C@@H](CCCCN)C(N)=O [Peptide 22, [D]-L^3,4,8,10-K3L9] (H-KL[dL][dL]LLK[dL]L[dL]LK-NH2)
0.7

Please answer likewise for CC(C)C[C@H](NC(=O)[C@H](CCCCN)NC(=O)[C@@H](CC(C)C)NC(=O)[C@@H](CC(C)C)NC(=O)[C@H](CCCCN)NC(=O)[C@@H](N)CCCCN)C(=O)N[C@@H](CCCCN)C(=O)N[C@H](CC(C)C)C(=O)N[C@@H](CCCCN)C(=O)N[C@H](CC(C)C)C(=O)N[C@@H](CCCCN)C(=O)N[C@@H](CCCCN)C(N)=O [Peptide 25, [D]-L^3,4,8,10-K7L5] (H-KK[dL][dL]KLK[dL]K[dL]KK-NH2; N-terminus assumed)
1

* * *

# Test system: Pseudomonas aeruginosa ATCC 27853
# test parameters: 100% inhibition of growth after 18–20 h
Numbered stars: 1 amine (or outer) side, 2 acyl side, 3 side chain; on linkers, the order of the positions; unused ones are H or OH. Square brackets hold non-standard residues; d marks the D form. Peptide text beside a SMILES is read from it. Ethylenediamine = C(CN[*:2])N[*:1]
Could you please report measured Minimal Inhibitory Concentration P. aeruginosa (ATCC 27853) for the items listed next?

Could you tell me which Minimal Inhibitory Concentration P. aeruginosa (ATCC 27853) is on file for CC(C)C[C@H](NC(=O)[C@H](CCCCN)NC(=O)[C@@H](CC(C)C)NC(=O)[C@@H](CC(C)C)NC(=O)[C@H](CC(C)C)NC(=O)[C@@H](N)CCCCN)C(=O)N[C@@H](CCCCN)C(=O)N[C@H](CC(C)C)C(=O)N[C@@H](CCCCN)C(=O)N[C@H](CC(C)C)C(=O)N[C@@H](CC(C)C)C(=O)N[C@@H](CCCCN)C(N)=O [Peptide 24, [D]-L^3,4,8,10-K5L7] (H-KL[dL][dL]KLK[dL]K[dL]LK-NH2) ?
10 µM

# iterate: CC[C@H](C)[C@H](NC(=O)[C@H](CCCCN)NC(=O)[C@H]1CCCN1C(=O)[C@@H](NC(=O)[C@H](CC(C)C)NC(=O)[C@H](C)NC(=O)[C@H](Cc1ccccc1)NC(=O)[C@H](Cc1ccccc1)NC(=O)CN)[C@@H](C)CC)C(=O)N[C@H](C(=O)N[C@@H](CO)C(=O)NCCN)[C@@H](C)CC [Peptide 7, [D]P^7-[1-11]-TApar] (H-GFFALI[dP]KIIS-Ethylenediamine; N-terminus assumed)
>120 µM

Same again, this time with CC(C)C[C@H](NC(=O)[C@H](CCCCN)NC(=O)[C@@H](CC(C)C)NC(=O)[C@@H](CC(C)C)NC(=O)[C@H](CCCCN)NC(=O)[C@@H](N)CCCCN)C(=O)N[C@@H](CCCCN)C(=O)N[C@H](CC(C)C)C(=O)N[C@@H](CCCCN)C(=O)N[C@H](CC(C)C)C(=O)N[C@@H](CCCCN)C(=O)N[C@@H](CCCCN)C(N)=O [Peptide 25, [D]-L^3,4,8,10-K7L5] (H-KK[dL][dL]KLK[dL]K[dL]KK-NH2; N-terminus assumed)
>200 µM

Param item: CC(C)C[C@H](NC(=O)[C@H](CC(C)C)NC(=O)[C@@H](CC(C)C)NC(=O)[C@@H](CC(C)C)NC(=O)[C@H](CC(C)C)NC(=O)[C@@H](N)CCCCN)C(=O)N[C@@H](CCCCN)C(=O)N[C@H](CC(C)C)C(=O)N[C@@H](CC(C)C)C(=O)N[C@H](CC(C)C)C(=O)N[C@@H](CC(C)C)C(=O)N[C@@H](CCCCN)C(N)=O [Peptide 22, [D]-L^3,4,8,10-K3L9] (H-KL[dL][dL]LLK[dL]L[dL]LK-NH2)
125 µM
